Test system: MARIMO;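 note: after 48 h exposure read by CellTiter-Glo luminescence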
Experiment: cell viability relative to vehicle control; higher = less cytotoxic
Settings: 10 µM; SRSF2 genotype: SRSF2 wt/wt
Counter-ions that a name gives are not always drawn.
measurementName: cell viability (%)

- CC(=O)O[C@]1(C)CC[C@@]23C[C@H]1C(C)(C)[C@@H]2CC[C@H]3C [Cedryl acetate]: 117
- CCc1cc2c(cc1N1CCC(N3CCOCC3)CC1)C(C)(C)c1[nH]c3cc(C#N)ccc3c1C2=O: 86.3
- COc1ccccc1 [Anisole]: 101
- C[n+]1c2n(c(=O)c3ccccc31)CCc1c-2[nH]c2ccccc12 [Dehydroevodiamine hydrochloride]: 100
- COc1ccc([C@@H]2OC[C@H]3[C@@H]2CO[C@@H]3c2ccc3c(c2)OCO3)cc1OC [Fargesin]: 86
- CC(C)(C)C1CCC(CC2=C(O)c3ccccc3C(=O)C2=O)CC1 (stereo not given) [Buparvaquone]: 101
- CCc1cc(Nc2nccc(-c3c(-c4ccc(OC)c(C(=O)Nc5c(F)cccc5F)c4)nc4ccccn34)n2)c(OC)cc1N1CCC(N2CCN(S(C)(=O)=O)CC2)CC1: 108
- C[n+]1ccccc1C=NO [Pralidoxime Iodide]: 105
- Oc1ccc(Cc2nc3c(Cc4ccccc4)nc(-c4ccc(O)cc4)cn3c2O)cc1 [Coelenterazine]: 93.5
- CCCOc1ccc2[nH]c(NC(=O)OC)nc2c1 [Oxibendazole]: 7.72
- C/C=C(/C)C(=O)O[C@H]1c2cc(OC)c(OC)c(OC)c2-c2c(cc3c(c2OC)OCO3)C[C@H](C)[C@]1(C)O [Schisantherin B]: 94.1
- CN1CCN(c2ccc(Nc3ncc4cc(C#N)c(=O)n(C5CCCC5)c4n3)cc2)CC1: 58.4
- CC1(C)CC[C@]2(C(=O)O[C@@H]3O[C@H](CO[C@@H]4O[C@H](CO)[C@@H](O)[C@H](O)[C@H]4O)[C@@H](O)[C@H](O)[C@H]3O)CC[C@]3(C)C(=CC[C@@H]4[C@@]5(C)CC[C@H](O[C@@H]6OC[C@H](O)[C@H](O)[C@H]6O)[C@@](C)(CO)[C@@H]5CC[C@]43C)[C@@H]2C1 [Akebia saponin D]: 113
- Cc1cc(C)c(CNC(=O)c2cc(-c3ccc(N4CCN(C)CC4)nc3)cc3c2c(C)cn3C(C)C)c(=O)[nH]1: 94.2
- Nc1nc2c(ncn2COCCO)c(=O)[nH]1 [Acyclovir (Aciclovir)]: 98.3
- FC(F)(F)c1ccc(/C=C/c2nc(COc3ccc(CCCCn4ccnn4)cc3)co2)cc1 [Mubritinib (TAK 165)]: 61.8
- O=C(Cn1nnc(-c2ccncc2)c1-c1ccccc1)Nc1ccc(-c2ccccc2)cn1: 53.3
- CCCCCOc1ccc(-c2ccc(-c3ccc(C(=O)N[C@H]4C[C@@H](O)[C@@H](O)NC(=O)[C@@H]5[C@@H](O)[C@@H](C)CN5C(=O)[C@H]([C@@H](C)O)NC(=O)[C@H]([C@H](O)[C@@H](O)c5ccc(O)cc5)NC(=O)[C@@H]5C[C@@H](O)CN5C(=O)[C@H]([C@@H](C)O)NC4=O)cc3)cc2)cc1: 94.3
- CC(C)CC(NC(=O)C(Cc1ccccc1)CC(O)C(Cc1ccccc1)NC(=O)OC(C)(C)C)C(=O)NC(Cc1ccccc1)C(N)=O (stereo not given): 99.5
- CC(C)[C@H](N)C(=O)OCCOCn1cnc2c(=O)nc(N)[nH]c21 [Valaciclovir HCl]: 111
- CO[C@H]1/C=C\C=C(/C)C(=O)NC2=CC(=O)C(NCCN(C)C)=C(C[C@@H](C)C[C@H](OC)[C@H](O)[C@@H](C)/C=C(\C)[C@@H]1OC(N)=O)C2=O [17-DMAG HCl (Alvespimycin)]: 22.5
- CC(C)=CCC/C(C)=C/Cc1c(O)c(CC=C(C)C)c2c(c1O)C(=O)C1=C[C@@H]3C[C@H]4C(C)(C)O[C@@](C/C=C(/C)C(=O)O)(C3=O)[C@@]14O2 [Gambogenic acid]: 0.68
- COc1cc(N2CCC(N)CC2)ccc1Nc1ncc(Cl)c(-c2c[nH]c3ccccc23)n1: 33.6
- CC(=O)OC1CCC2C3CCc4cc(O)ccc4C3CCC12C (stereo not given): 98.9
- NC1CC1c1ccc(-c2cccc(O)c2)cc1 (stereo not given): 106
- CCOC(=O)C1=C(COCCN)NC(C)=C(C(=O)OC)C1c1ccccc1Cl (stereo not given) [Amlodipine besylate (Norvasc)]: 78.3
- CC(C)(C)OC(=O)N[C@@H]1CCCC[C@H]1N [(1R,2R)-trans-N-Boc-1,2-cyclohexanediamine]: 104
- CN(CCOc1ccc(CC2SC(=O)NC2=O)cc1)c1ccccn1 (stereo not given) [Rosiglitazone HCl]: 115
- CC(ONC(=O)c1cc(C(F)(F)F)cc(C(F)(F)F)c1)C(=O)Nc1ccc(Cl)cc1 (stereo not given): 102
- Cc1ccc(Sc2ccccc2N2CCNCC2)c(C)c1: 11.2
